Target: MAP kinase-activated protein kinase 3 (Homo sapiens)
Conditions: at 10 µM
measured.endpoint: residual activity (%)
Please respond with the number in % and leave the unit unwritten.

Here's what some known entries look like.
Cn1cc(/C=C2\C(=O)Nc3ccc(S(N)(=O)=O)cc32)c2ccccc21 : 88
Ic1cccc(CSc2nnc(-c3ccncc3)o2)c1 : 82

Now consider the entry below.
// residual activity lookup, molecule = CCOc1cc2ncnc(Nc3cccc(Br)c3)c2cc1OCC , result: 82

###

Biological target: Tyrosine-protein kinase JAK2 (Homo sapiens) (UniProt O60674)
Sequence (O60674 whole entry): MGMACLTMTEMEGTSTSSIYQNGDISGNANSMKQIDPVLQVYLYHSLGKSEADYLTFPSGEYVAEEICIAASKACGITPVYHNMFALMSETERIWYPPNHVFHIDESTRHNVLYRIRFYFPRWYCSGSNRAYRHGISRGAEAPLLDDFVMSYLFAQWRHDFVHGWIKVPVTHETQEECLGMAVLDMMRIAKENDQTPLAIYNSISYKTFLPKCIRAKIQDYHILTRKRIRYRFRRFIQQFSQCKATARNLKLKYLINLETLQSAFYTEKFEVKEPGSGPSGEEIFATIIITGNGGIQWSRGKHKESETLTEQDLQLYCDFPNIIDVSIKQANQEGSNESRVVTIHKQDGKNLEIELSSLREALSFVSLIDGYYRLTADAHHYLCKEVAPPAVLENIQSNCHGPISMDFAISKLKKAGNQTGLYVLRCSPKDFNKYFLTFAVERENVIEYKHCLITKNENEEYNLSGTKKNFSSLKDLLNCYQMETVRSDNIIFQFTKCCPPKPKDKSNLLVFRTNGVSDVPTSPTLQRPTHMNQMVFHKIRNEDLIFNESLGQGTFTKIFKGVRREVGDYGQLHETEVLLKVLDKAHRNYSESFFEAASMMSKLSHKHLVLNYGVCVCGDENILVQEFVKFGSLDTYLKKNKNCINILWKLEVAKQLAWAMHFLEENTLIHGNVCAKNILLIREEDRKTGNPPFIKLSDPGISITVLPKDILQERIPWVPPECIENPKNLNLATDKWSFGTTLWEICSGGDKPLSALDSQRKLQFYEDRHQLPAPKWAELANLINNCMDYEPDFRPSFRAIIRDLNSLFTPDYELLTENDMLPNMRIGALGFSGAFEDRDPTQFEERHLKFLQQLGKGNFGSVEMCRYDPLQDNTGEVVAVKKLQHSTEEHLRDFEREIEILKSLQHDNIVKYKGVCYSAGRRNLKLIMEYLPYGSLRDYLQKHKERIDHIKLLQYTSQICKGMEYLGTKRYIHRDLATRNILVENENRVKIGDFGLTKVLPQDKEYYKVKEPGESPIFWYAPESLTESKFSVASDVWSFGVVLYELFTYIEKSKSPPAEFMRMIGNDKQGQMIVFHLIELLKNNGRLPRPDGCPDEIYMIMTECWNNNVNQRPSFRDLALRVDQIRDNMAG
Settings: at 10 µM
With a cut-off of 90%, any residual activity strictly below it is called Satisfied; any residual activity meeting it or above is called Not satisfied.

# count of solved cases: 4
O=C1c2ccccc2-[n+]2ccc3c([nH]c4ccccc43)c21 : Not satisfied
O=C1Nc2cc(Br)ccc2/C1=C1/Nc2ccccc2/C1=N\O : Satisfied
Oc1ccc(-c2nc(-c3ccc(F)cc3)c(-c3ccncc3)[nH]2)cc1 : Not satisfied
COc1cc2ncnc(Nc3ccc(O)c(Br)c3)c2cc1OC : Satisfied

Below: the item to evaluate.
Given the entry COc1ccc(OC)c2c(=S)c3ccccc3[nH]c12 , would its reported residual activity be below 90%?
Not satisfied
